# Assay target: T1, human GRP78, N-His-tagged (human, UniProt P11021 19-654)
# T1 construct: GRP78, human; 6-His tag at the N-terminus; also called N-His-tagged GRP78; not shown: His6, N-terminal, kept
# T1 sequence (P11021 19-654): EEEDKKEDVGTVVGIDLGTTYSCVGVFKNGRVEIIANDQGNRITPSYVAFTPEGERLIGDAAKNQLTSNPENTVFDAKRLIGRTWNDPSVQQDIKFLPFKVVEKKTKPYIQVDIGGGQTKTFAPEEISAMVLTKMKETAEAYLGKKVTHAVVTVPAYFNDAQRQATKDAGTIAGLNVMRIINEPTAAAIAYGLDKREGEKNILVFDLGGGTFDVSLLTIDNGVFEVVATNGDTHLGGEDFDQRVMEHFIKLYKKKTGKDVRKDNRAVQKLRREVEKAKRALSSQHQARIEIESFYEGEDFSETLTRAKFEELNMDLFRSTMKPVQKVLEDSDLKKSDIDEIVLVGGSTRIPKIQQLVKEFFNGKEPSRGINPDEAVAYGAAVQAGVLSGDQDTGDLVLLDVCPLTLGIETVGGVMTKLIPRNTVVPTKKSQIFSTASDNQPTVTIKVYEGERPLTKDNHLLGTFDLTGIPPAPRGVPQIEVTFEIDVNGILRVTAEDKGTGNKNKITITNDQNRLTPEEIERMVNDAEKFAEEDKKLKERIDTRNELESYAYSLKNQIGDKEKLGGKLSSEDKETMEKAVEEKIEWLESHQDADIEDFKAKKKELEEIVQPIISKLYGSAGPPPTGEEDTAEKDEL
# Assay procedure: SPR; modified protocol, Biacore X: N-His-tagged GRP78 covalently immobilised (EDC/NHS, Ni2+ orientation, about 5000~6000 RU) on chip NTA; running buffer HBS-P pH 7.4 with 1 mM glycine; L-peptide 6.25-100 uM; both peptides at 50 uM in Fig. 3; fit with BIAevaluation 4.1, default settings
# Particulars: both partners purified

Binder	Kd
RLLDTNRPLLPY (Probably synthetic) [L-peptide (RLLDTNRPLLPY)]	~10 µM
